- ASSAYED SYSTEM: D(2) dopamine receptor (Homo sapiens) (UniProt P14416)
- Sequence (P14416 whole entry, looked up): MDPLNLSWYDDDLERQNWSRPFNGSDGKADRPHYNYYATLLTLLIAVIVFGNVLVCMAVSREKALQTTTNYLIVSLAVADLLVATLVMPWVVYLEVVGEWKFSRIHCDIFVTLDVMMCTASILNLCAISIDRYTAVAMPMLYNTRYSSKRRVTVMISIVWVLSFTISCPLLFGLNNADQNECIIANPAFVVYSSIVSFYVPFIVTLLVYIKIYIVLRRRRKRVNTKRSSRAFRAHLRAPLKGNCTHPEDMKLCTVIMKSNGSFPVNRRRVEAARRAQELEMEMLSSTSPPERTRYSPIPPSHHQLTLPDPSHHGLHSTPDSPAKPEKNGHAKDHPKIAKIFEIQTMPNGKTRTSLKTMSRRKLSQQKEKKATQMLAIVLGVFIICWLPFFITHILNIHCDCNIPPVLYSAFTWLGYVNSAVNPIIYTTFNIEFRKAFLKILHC
- TEST NAME: Dopamine D2 receptor (DRD2) small molecule agonists, cell-based qHTS assay (AID 1963594); note: nearly all actives have a fitted effect of over 35% in size
- TEST CONDITIONS: HEK293-DRD2 cAMP HTRF, agonist mode, 30 min; series mostly up to 92.4 µM
Records with an inconclusive call do not appear. Activity calls are given as the source filed them. Calls come from the whole dose curve.
ENDPOINT LABEL: activation

Some molecules with recorded activation:
| MOLECULE | activation |
| --- | --- |
| CCN(CC)CCNC(=O)COc1ccc(OC)cc1 | inactive |
| CC[C@]12CCCN3CCc4c(n(c5ccccc45)C(=O)C1)[C@@H]32 | inactive |
| CC(=O)Oc1cccc2c1C(=O)c1c(OC(C)=O)cc(C(=O)O)cc1C2=O | inactive |
| CC(C)COC(=O)C(C)C | inactive |
| c1ccc(B(c2ccccc2)c2ccccc2)cc1 | inactive |

Working through the 4 molecules below one at a time, give activation for each.
1. COc1nccnc1NS(=O)(=O)c1ccc(N)cc1
2. Sc1nc(S)nc(S)n1
3. C=CC(=O)NC(C)(C)C
4. Cc1cc(C)c(N)cc1C

Result:
1. inactive
2. inactive
3. inactive
4. inactive

Working through the 5 molecules below one at a time, give activation for each.
1. CCN(CC)CCNC(C(=O)OCCC(C)C)c1ccccc1 (centres undefined)
2. CC(C)(CO)[N+](=O)[O-]
3. Cc1c(-c2cccnc2)c2ccccc2n1CCCCC(=O)O
4. COc1cc(C(C)=O)ccc1OCCCN1CCC(c2noc3cc(F)ccc23)CC1
5. CCCCCCCCCCCCSC#N

Result:
inactive
inactive
inactive
inactive
inactive
